Every entry's value here was drawn from paper PMC11618752.

Target under test: XPO1 protein, recombinant (UniProt O14980 1-1071)
Sequence (O14980 whole entry): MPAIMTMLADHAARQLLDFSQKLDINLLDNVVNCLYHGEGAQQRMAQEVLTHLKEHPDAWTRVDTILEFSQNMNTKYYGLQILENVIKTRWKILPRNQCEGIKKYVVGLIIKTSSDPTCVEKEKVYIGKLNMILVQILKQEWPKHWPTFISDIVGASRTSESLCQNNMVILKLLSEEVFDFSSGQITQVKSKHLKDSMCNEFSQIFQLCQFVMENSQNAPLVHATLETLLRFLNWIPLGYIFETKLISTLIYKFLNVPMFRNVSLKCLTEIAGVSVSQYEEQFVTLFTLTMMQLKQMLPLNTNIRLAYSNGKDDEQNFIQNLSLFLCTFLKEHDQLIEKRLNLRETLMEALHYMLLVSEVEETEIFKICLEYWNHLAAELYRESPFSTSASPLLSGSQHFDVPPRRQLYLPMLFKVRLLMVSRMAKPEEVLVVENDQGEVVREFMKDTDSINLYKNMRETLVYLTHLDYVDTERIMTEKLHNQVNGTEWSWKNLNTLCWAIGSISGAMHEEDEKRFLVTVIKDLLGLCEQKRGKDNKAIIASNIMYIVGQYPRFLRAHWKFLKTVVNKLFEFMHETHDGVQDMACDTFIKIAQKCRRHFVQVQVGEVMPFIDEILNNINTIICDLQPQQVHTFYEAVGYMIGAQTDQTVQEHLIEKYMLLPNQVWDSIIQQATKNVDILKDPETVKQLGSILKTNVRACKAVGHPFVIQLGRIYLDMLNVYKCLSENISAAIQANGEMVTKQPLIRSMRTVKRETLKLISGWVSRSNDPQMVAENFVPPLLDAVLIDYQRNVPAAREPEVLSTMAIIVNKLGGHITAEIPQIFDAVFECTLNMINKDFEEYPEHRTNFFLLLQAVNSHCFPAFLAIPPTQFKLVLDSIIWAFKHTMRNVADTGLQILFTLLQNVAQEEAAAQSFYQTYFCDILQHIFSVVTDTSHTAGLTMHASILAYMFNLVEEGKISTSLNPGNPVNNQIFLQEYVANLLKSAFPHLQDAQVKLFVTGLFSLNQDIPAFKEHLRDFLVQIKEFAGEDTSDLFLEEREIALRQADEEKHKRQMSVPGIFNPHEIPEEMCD
Method description: ITC
Property name: Kd (µM)
Answers are plain numbers, in µM.

# get_value(readout='Kd', item= LLFALKVLNM [NES peptide (173–182 aa of TIRR)] )
45
